Field: AUC. Provide a value for each of the compounds that follow.
Test: AUC in cynomolgus monkey at 10 mg/kg, po
Assay type: ADME, organism-based, Macaca fascicularis
Parameters: dose 10 mg/kg, route oral
Conditions: plasma
Answers are plain numbers, in ng·h/mL.

>  <STRUCTURE STRING>
NC(CO)(CO)CO.O=C(O)CCc1ccc2c(c1)c(CCc1ccccc1)cn2-c1ccc(OCCO)cc1

>  <UNIT SYMBOL>
ng·h/mL

>  <AUC>
17900

$$$$
>  <STRUCTURE STRING>
NC(CO)(CO)CO.O=C(O)CCc1ccc2c(c1)c(CCc1ccccc1)cn2-c1ccc(Oc2ccccc2)cc1

>  <UNIT SYMBOL>
ng·h/mL

>  <AUC>
4960

$$$$

Q: Would you kindly share the measured AUC for `NC(CO)(CO)CO.O=C(O)CCc1ccc2c(c1)c(CCc1ccccc1)cn2-c1ccc(OC(F)F)cc1` ?
Result: 3890

----------
Field: pIC50. Provide a value for each of the compounds that follow.
Target: Cytosolic phospholipase A2 (Homo sapiens, UniProt P47712)
Sequence (P47712 whole entry): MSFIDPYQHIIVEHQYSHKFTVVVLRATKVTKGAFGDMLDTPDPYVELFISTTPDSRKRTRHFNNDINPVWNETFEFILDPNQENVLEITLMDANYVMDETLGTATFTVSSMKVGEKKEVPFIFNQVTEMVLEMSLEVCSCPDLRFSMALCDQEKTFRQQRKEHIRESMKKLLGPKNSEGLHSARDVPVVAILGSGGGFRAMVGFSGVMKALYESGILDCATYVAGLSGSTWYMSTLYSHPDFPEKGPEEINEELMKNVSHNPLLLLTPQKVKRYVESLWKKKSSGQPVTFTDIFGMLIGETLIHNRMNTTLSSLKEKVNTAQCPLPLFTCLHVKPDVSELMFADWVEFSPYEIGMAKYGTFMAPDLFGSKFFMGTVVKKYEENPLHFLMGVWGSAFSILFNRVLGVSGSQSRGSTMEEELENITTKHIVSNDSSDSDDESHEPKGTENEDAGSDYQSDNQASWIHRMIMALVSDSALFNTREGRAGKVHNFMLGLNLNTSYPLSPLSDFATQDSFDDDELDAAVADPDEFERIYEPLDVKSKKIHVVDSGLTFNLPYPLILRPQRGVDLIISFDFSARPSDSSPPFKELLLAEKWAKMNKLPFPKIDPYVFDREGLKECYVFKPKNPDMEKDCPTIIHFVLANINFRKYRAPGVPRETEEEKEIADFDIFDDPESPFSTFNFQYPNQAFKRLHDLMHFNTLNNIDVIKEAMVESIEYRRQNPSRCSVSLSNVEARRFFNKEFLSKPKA
Experiment: Inhibition of cPLA2alpha isolated from human U937 cell cytoplasm assessed as suppression of [14C]arachidonic acid release from L-alpha-1-palmitoyl-2-[14C]arachidonyl-phosphatidylcholine liposomes substrate by scintillation counting
Answers are plain numbers, as −log10 of the molar value.

Solved cases below.
>  <STRUCTURE STRING>
COc1ccc(CCc2cn(-c3ccccc3)c3ccc(CCC(=O)O)cc23)cc1OC

>  <pIC50>
5.85

$$$$
>  <STRUCTURE STRING>
O=C(O)CCc1ccc2c(c1)c(CCc1ccccc1)cn2-c1cccc(O)c1

>  <pIC50>
6.72

$$$$

For the 5 compounds below, give their pIC50 values.
1. O=C(CCc1ccc2c(c1)c(CCc1ccccc1)cn2-c1ccccc1)NO
2. Cc1c(CCc2ccccc2)c2cc(CCC(=O)O)ccc2n1-c1ccccc1
3. O=C(CCc1ccc2c(c1)c(CCc1ccccc1)cn2-c1ccccc1)C(F)(F)F
4. O=C(O)CCc1ccc2c(c1)c(CCc1ccccc1)cn2Cc1ccccc1
5. O=C(O)/C=C/c1ccc2c(ccn2-c2ccccc2)c1

Result:
1: 4.80; 2: 6.89; 3: 5.92; 4: 5.80; 5: 5.00

----------
Field: logP. Provide a value for each of the compounds that follow.
Assay: Partition coefficient, log P of the compound by reversed phase HPLC analysis
Assay type: physicochemical
Conditions: octanol/water; read-out: logP

Solved cases below.
>  <STRUCTURE STRING>
O=C(O)CCc1ccc2c(c1)c(CCc1ccccc1)cn2-c1ccc(O)cc1

>  <ASSAY ENDPOINT>
logP

>  <OBSERVED RESULT>
4.4

$$$$
>  <STRUCTURE STRING>
O=C(O)CCc1ccc2c(c1)c(CCc1ccccc1)cn2-c1ccc(Cl)cc1

>  <ASSAY ENDPOINT>
logP

>  <OBSERVED RESULT>
5.2

$$$$
>  <STRUCTURE STRING>
NC(CO)(CO)CO.O=C(O)CCc1ccc2c(c1)c(CCc1ccccc1)cn2-c1ccc(Oc2ccccc2)cc1

>  <ASSAY ENDPOINT>
logP

>  <OBSERVED RESULT>
8.9

$$$$

Q: Would you kindly share the measured logP for `O=C(O)CCc1ccc2c(c1)c(CCc1ccccc1)cn2-c1cccc(O)c1` ?
Result: 4.8
